test system: NCI-H1755; assay: relative viability (nuclei count vs DMSO), 5 days (fraction); higher = more cells survive; settings: first compound 0.8 µM
Cut-off 0.6 on relative viability: below means 1, at or above means 0.

Some entries whose results are on file:
Just wondering, is relative viability of O=c1[nH]c2ccccc2n1C1CCN(CCCC(c2ccc(F)cc2)c2ccc(F)cc2)CC1 [Pimozide] + CC(=O)c1c(C)c2cnc(Nc3ccc(N4CCNCC4)cn3)nc2n(C2CCCC2)c1=O [Palbociclib] (partner 0.5 µM) below 0.6? 1

Lab log: compare recorded relative viability with 0.6; is it strictly lower for O=c1[nH]c2ccccc2n1C1CCN(CCCC(c2ccc(F)cc2)c2ccc(F)cc2)CC1 [Pimozide] + Nc1ncn([C@H]2C[C@H](O)[C@@H](CO)O2)c(=O)n1 [Decitabine] (partner 2 µM) ? 0

Continuing:
API: query returns whether the molecule falls strictly under 0.6 in relative viability. Query: Cc1cnc(-c2cnc(NCCNc3ccc(C#N)cn3)nc2-c2ccc(Cl)cc2Cl)[nH]1 + Nc1ncn([C@H]2C[C@H](O)[C@@H](CO)O2)c(=O)n1 [Decitabine] (partner 2 µM) 0

Does the reported relative viability of the following molecule sit strictly below 0.6? Cc1cnc(-c2cnc(NCCNc3ccc(C#N)cn3)nc2-c2ccc(Cl)cc2Cl)[nH]1 + NC(=O)Nc1cc(-c2cccc(F)c2)sc1C(=O)N[C@H]1CCCNC1 [AZD7762] (partner 0.2 µM) 1

For this molecule, is relative viability lower than 0.6? Cc1cnc(-c2cnc(NCCNc3ccc(C#N)cn3)nc2-c2ccc(Cl)cc2Cl)[nH]1 + COc1cc2c(Oc3ccc(NC(=O)C4(C(=O)Nc5ccc(F)cc5)CC4)cc3F)ccnc2cc1OCCCN1CCOCC1 [Foretinib] (partner 0.25 µM) 0
